Each entry below carries its reported EC50.
biological target: Luciferin 4-monooxygenase (Photinus pyralis, UniProt P08659); assay: firefly luciferase enzyme inhibitors, dose response, biochemical, luminescence (AID 1891)
Sequence (P08659 whole entry): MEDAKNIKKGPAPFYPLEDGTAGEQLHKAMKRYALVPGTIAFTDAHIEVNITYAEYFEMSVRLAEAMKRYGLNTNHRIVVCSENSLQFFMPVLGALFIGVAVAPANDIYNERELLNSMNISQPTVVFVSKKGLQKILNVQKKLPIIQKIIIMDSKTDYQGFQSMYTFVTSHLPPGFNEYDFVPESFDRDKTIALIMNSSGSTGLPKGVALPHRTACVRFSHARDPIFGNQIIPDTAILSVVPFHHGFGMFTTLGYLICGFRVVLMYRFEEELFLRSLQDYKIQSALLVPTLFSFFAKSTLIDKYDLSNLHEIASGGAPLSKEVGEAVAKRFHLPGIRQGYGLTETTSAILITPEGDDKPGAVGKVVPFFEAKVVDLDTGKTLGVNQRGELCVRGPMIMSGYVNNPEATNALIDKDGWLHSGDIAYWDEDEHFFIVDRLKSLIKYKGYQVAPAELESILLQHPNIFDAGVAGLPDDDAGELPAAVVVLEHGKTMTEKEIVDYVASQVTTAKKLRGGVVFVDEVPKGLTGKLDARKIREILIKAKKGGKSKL
Calls of active or inactive are those of the source. No stated cut-off is given here; in the data, actives have a measured EC50 and inactives only a lower limit.

{"compound": "Cc1ccc2c(c1)C(CCN)C(=O)N2Cc1ccccc1 (stereo not given)", "test.system": "Luciferin 4-monooxygenase (Photinus pyralis, UniProt P08659)", "EC50": "> 112 µM (not active)"}
{"compound": "Nc1nc(F)nc2c1ncn2[C@@H]1O[C@H](CO)[C@@H](O)[C@H]1O", "test.system": "Luciferin 4-monooxygenase (Photinus pyralis, UniProt P08659)", "EC50": "> 112 µM (not active)"}
{"compound": "C=C[C@@]1(C)CC(=O)[C@]2(O)[C@@]3(C)[C@@H](O)CCC(C)(C)[C@@H]3[C@H](O)[C@H](OC(C)=O)[C@@]2(C)O1 [COLFORSIN]", "test.system": "Luciferin 4-monooxygenase (Photinus pyralis, UniProt P08659)", "EC50": "> 112 µM (not active)"}
{"compound": "Cc1ccc(C(=O)CCC(=O)Nc2cccc(C(F)(F)F)c2)cc1", "test.system": "Luciferin 4-monooxygenase (Photinus pyralis, UniProt P08659)", "EC50": "> 112 µM (not active)"}
{"compound": "C=CCOC(=O)C(C#N)c1nc2ccccc2nc1N1CCN(Cc2ccc3c(c2)OCO3)CC1 (stereo not given)", "test.system": "Luciferin 4-monooxygenase (Photinus pyralis, UniProt P08659)", "EC50": "69.2 µM (active)"}
{"compound": "O=C(NCCc1ccc(Cl)cc1)c1ccc(CNc2c(N3CCOCC3)c(=O)c2=O)cc1", "test.system": "Luciferin 4-monooxygenase (Photinus pyralis, UniProt P08659)", "EC50": "> 112 µM (not active)"}
{"compound": "CCCCOc1cccc(-c2cc(C(=O)NNC(=S)NCC)c3ccccc3n2)c1", "test.system": "Luciferin 4-monooxygenase (Photinus pyralis, UniProt P08659)", "EC50": "2.3 µM (active)"}
{"compound": "COc1cc(N/N=C/c2ccc(N(C)C)cc2)ncn1", "test.system": "Luciferin 4-monooxygenase (Photinus pyralis, UniProt P08659)", "EC50": "2.9 µM (active)"}

Need EC50 of `c1c2c(cc3sc(N4CCOCC4)nc13)OCCO2` , thanks.
11.4 µM (active)

Need EC50 of `O=[N+]([O-])c1c(Nc2ccc(O)cc2)cc(Cl)c2nonc12` , thanks.
> 112 µM (not active)
